# Tested on: Jurkat
# PROCEDURE_SUMMARY: Antiproliferative activity, resazurin assay, 72 h
# Type: cell-based, human
PROPERTY: GI50 (µM)
Give the value, in units of µM, as a plain number.

[Br-].[Br-].c1cc2c(s1)c(N1CCCCC1)nc[n+]2Cc1ccc(CCCCc2ccc(C[n+]3cnc(N4CCCCC4)c4sccc43)cc2)cc1
1.46
[Br-].[Br-].c1cc2c(s1)c(N1CCCCCC1)nc[n+]2Cc1ccc(CCc2ccc(C[n+]3cnc(N4CCCCCC4)c4sccc43)cc2)cc1
6.15
[Br-].[Br-].c1cc2c(N3CCCC3)nc[n+](Cc3ccc(CCCCc4ccc(C[n+]5cnc(N6CCCC6)c6ccsc65)cc4)cc3)c2s1
7.54

Now for another entry.
q: Can you share its GI50? I mean this molecule: [Br-].[Br-].c1cc2c(N3CCCCCC3)nc[n+](Cc3ccc(OCCOc4ccc(C[n+]5cnc(N6CCCCCC6)c6ccsc65)cc4)cc3)c2s1
a: 6.2

---

# Test system: HT29
# PROCEDURE_SUMMARY: Antiproliferative activity, resazurin assay, 72 h
# Format: cell-based, human
GI50 vs 2 µM: less than gives t; not less than gives f.

[Br-].[Br-].c1cc2c(s1)c(N1CCCCC1)nc[n+]2Cc1ccc(CCCCc2ccc(C[n+]3cnc(N4CCCCC4)c4sccc43)cc2)cc1 [Fa-33]
t
[Br-].[Br-].c1cc2c(s1)c(N1CCCCCC1)nc[n+]2Cc1ccc(CCc2ccc(C[n+]3cnc(N4CCCCCC4)c4sccc43)cc2)cc1 [Fa-23]
t
[Br-].[Br-].c1cc2c(s1)c(N1CCCC1)nc[n+]2Cc1ccc(OCCOc2ccc(C[n+]3cnc(N4CCCC4)c4sccc43)cc2)cc1 [Ff-8]
t
[Br-].[Br-].c1cc2c(N3CCCC3)nc[n+](Cc3ccc(OCCOc4ccc(C[n+]5cnc(N6CCCC6)c6ccsc65)cc4)cc3)c2s1 [Ff-4]
f
[Br-].[Br-].c1cc2c(s1)c(N1CCCC1)cc[n+]2Cc1ccc(CCCCc2ccc(C[n+]3ccc(N4CCCC4)c4sccc43)cc2)cc1 [Ff-1]
f
[Br-].[Br-].c1cc2c(N3CCCCCC3)nc[n+](Cc3ccc(-c4ccc(C[n+]5cnc(N6CCCCCC6)c6ccsc65)cc4)cc3)c2s1 [Fg-18]
f
[Br-].[Br-].c1cc2c(N3CCCC3)nc[n+](Cc3ccc(-c4ccc(C[n+]5cnc(N6CCCC6)c6ccsc65)cc4)cc3)c2s1 [Fg-14]
f
[Br-].[Br-].c1cc2c(s1)c(N1CCCCCC1)cc[n+]2Cc1ccc(-c2ccc(C[n+]3ccc(N4CCCCCC4)c4sccc43)cc2)cc1 [Fg-10]
t
[Br-].[Br-].c1cc2c(N3CCCCC3)nc[n+](Cc3ccc(CCc4ccc(C[n+]5cnc(N6CCCCC6)c6ccsc65)cc4)cc3)c2s1 [Fg-31]
f
[Br-].[Br-].c1cc2c(N3CCCCC3)nc[n+](Cc3ccc(CCCCc4ccc(C[n+]5cnc(N6CCCCC6)c6ccsc65)cc4)cc3)c2s1 [Ff-6]
t

q: Regarding [Br-].[Br-].c1cc2c(s1)c(N1CCCC1)nc[n+]2Cc1ccc(CCc2ccc(C[n+]3cnc(N4CCCC4)c4sccc43)cc2)cc1 [Fg-16] , kindly confirm whether its GI50 is beneath 2 µM.
a: f

q: Regarding [Br-].[Br-].c1cc2c(s1)c(N1CCCCCC1)nc[n+]2Cc1ccc(OCCOc2ccc(C[n+]3cnc(N4CCCCCC4)c4sccc43)cc2)cc1 [Ff-34] , kindly confirm whether its GI50 is beneath 2 µM.
a: t

q: Regarding [Br-].[Br-].c1cc2c(N3CCCCCC3)nc[n+](Cc3ccc(OCCOc4ccc(C[n+]5cnc(N6CCCCCC6)c6ccsc65)cc4)cc3)c2s1 [Ff-36] , kindly confirm whether its GI50 is beneath 2 µM.
a: f

---

# System: Jurkat
# PROCEDURE_SUMMARY: Antiproliferative activity, resazurin assay, 72 h
# Assay type: cell-based, human
PROPERTY: GI50

q: Can you share its GI50? I mean this molecule: [Br-].[Br-].c1cc2c(s1)c(N1CCCC1)nc[n+]2Cc1ccc(CCc2ccc(C[n+]3cnc(N4CCCC4)c4sccc43)cc2)cc1
a: > 10 µM

q: Can you share its GI50? I mean this molecule: CN(C)c1cc[n+](Cc2ccc(CCCCc3ccc(C[n+]4ccc(N(C)C)cc4)cc3)cc2)cc1 [MN-48b, reference compound]
a: 0.35 µM

q: Can you share its GI50? I mean this molecule: [Br-].[Br-].c1cc2c(s1)c(N1CCCC1)nc[n+]2Cc1ccc(OCCOc2ccc(C[n+]3cnc(N4CCCC4)c4sccc43)cc2)cc1
a: > 10 µM

q: Can you share its GI50? I mean this molecule: [Br-].[Br-].c1cc2c(s1)c(N1CCCCC1)nc[n+]2Cc1ccc(-c2ccc(C[n+]3cnc(N4CCCCC4)c4sccc43)cc2)cc1
a: > 10 µM

q: Can you share its GI50? I mean this molecule: [Br-].[Br-].c1cc2c(s1)c(N1CCCCCC1)cc[n+]2Cc1ccc(-c2ccc(C[n+]3ccc(N4CCCCCC4)c4sccc43)cc2)cc1
a: 6.33 µM

q: Can you share its GI50? I mean this molecule: CN(c1ccccc1)c1nc[n+](Cc2ccc(-c3ccc(C[n+]4cnc(N(C)c5ccccc5)c5sccc54)cc3)cc2)c2ccsc12
a: > 10 µM

---

# TESTED_SYSTEM: CKα1 (Homo sapiens, UniProt P35790)
# Construct: an N-terminally His-tagged truncated form of CKα1 (Δ75–457) was cloned into a pET-28a vector; His tag (N); made in house; host or cells: E. coli BL21 (DE3) Star
# Sequence (P35790 75-457): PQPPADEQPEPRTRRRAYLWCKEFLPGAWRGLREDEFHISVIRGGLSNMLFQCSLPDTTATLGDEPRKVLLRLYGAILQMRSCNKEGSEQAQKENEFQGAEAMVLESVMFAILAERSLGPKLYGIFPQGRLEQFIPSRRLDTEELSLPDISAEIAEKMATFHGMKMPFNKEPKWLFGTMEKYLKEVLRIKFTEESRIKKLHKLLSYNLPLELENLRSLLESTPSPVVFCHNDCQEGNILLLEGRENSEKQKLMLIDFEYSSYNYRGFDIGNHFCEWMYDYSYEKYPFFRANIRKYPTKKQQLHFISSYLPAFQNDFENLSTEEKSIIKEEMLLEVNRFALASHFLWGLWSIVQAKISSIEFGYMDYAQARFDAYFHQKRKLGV
# PROCEDURE_SUMMARY: Choline kinase assay ([methyl-14C]choline into PCho, purified enzyme)
# Assay type: biochemical
# ASSAY_CONTEXT: purified CKα1, inhibitor 30 µM, end-point assay
Use 90% as the dividing line for % Inhibition at 30 µM, with the line itself on the t side and lower values as f.

Example entries begin here.
[Br-].[Br-].c1cc2c(N3CCCCCC3)nc[n+](Cc3ccc(OCCOc4ccc(C[n+]5cnc(N6CCCCCC6)c6ccsc65)cc4)cc3)c2s1 [Ff-36]
t
[Br-].[Br-].c1cc2c(s1)c(N1CCCC1)nc[n+]2Cc1ccc(OCCOc2ccc(C[n+]3cnc(N4CCCC4)c4sccc43)cc2)cc1 [Ff-8]
t
[Br-].[Br-].c1cc2c(s1)c(N1CCCC1)cc[n+]2Cc1ccc(-c2ccc(C[n+]3ccc(N4CCCC4)c4sccc43)cc2)cc1 [Fg-9]
t
[Br-].[Br-].c1cc2c(s1)c(N1CCCCCC1)nc[n+]2Cc1ccc(OCCOc2ccc(C[n+]3cnc(N4CCCCCC4)c4sccc43)cc2)cc1 [Ff-34]
t
[Br-].[Br-].c1cc2c(N3CCCC3)nc[n+](Cc3ccc(-c4ccc(C[n+]5cnc(N6CCCC6)c6ccsc65)cc4)cc3)c2s1 [Fg-14]
t

Now consider a different compound.
q: Identify whether the reported % Inhibition at 30 µM of the following compound is 90% or greater: [Br-].[Br-].c1cc2c(s1)c(N1CCCC1)nc[n+]2Cc1ccc(-c2ccc(C[n+]3cnc(N4CCCC4)c4sccc43)cc2)cc1 [Fa-21]
a: f

---

# System: HT29
# PROCEDURE_SUMMARY: Antiproliferative activity, resazurin assay, 72 h
# Type: cell-based, human
PROPERTY: GI50 (µM)
Give the value, in units of µM, as a plain number.

Below are worked cases with known answers.
[Br-].[Br-].c1cc2c(s1)c(N1CCCC1)cc[n+]2Cc1ccc(CCc2ccc(C[n+]3ccc(N4CCCC4)c4sccc43)cc2)cc1
3.65
CN(c1ccc(Cl)cc1)c1nc[n+](Cc2ccc(-c3ccc(C[n+]4cnc(N(C)c5ccc(Cl)cc5)c5ccsc54)cc3)cc2)c2sccc12
3.93
[Br-].[Br-].c1cc2c(N3CCCCC3)nc[n+](Cc3ccc(-c4ccc(C[n+]5cnc(N6CCCCC6)c6ccsc65)cc4)cc3)c2s1
8.32
[Br-].[Br-].c1cc2c(s1)c(N1CCCCC1)nc[n+]2Cc1ccc(CCc2ccc(C[n+]3cnc(N4CCCCC4)c4sccc43)cc2)cc1
1.47
[Br-].[Br-].c1cc2c(N3CCCCCC3)nc[n+](Cc3ccc(CCCCc4ccc(C[n+]5cnc(N6CCCCCC6)c6ccsc65)cc4)cc3)c2s1
0.78
CN(c1ccccc1)c1nc[n+](Cc2ccc(-c3ccc(C[n+]4cnc(N(C)c5ccccc5)c5sccc54)cc3)cc2)c2ccsc12
1.43

q: Can you share its GI50? I mean this compound: [Br-].[Br-].c1cc2c(N3CCCCC3)nc[n+](Cc3ccc(OCCOc4ccc(C[n+]5cnc(N6CCCCC6)c6ccsc65)cc4)cc3)c2s1
a: 1.73

q: Can you share its GI50? I mean this compound: [Br-].[Br-].c1cc2c(N3CCCC3)nc[n+](Cc3ccc(CCCCc4ccc(C[n+]5cnc(N6CCCC6)c6ccsc65)cc4)cc3)c2s1
a: 1.33

q: Can you share its GI50? I mean this compound: CN(C)c1cc[n+](Cc2ccc(CCCCc3ccc(C[n+]4ccc(N(C)C)cc4)cc3)cc2)cc1 [MN-48b, reference compound]
a: 1.9
